Biological target: Caspase-1 (Homo sapiens)
Experiment: Second order rate constant of inactivation for compound was measured against Interleukin-1-beta converting enzyme partially purified from THP-1 cells
k obs / 1: recorded values

structure-notation: CC(C)[C@H](NC(=O)OCc1ccccc1)C(=O)N[C@@H](C)C(=O)N[C@@H](CC(=O)O)C(=O)COC(=O)c1c(Cl)cccc1Cl
k obs / 1 [M⁻¹ s⁻¹]: 432000

structure-notation: O=C(O)C[C@H](NC(=O)Cn1c(-c2ccc(F)cc2)ncc(NS(=O)(=O)c2ccccc2)c1=O)C(=O)COC(=O)c1c(Cl)cccc1Cl
k obs / 1 [M⁻¹ s⁻¹]: 90000

structure-notation: O=C(O)C[C@H](NC(=O)Cn1c(-c2ccc(F)cc2)ncc(NC(=O)OCc2ccccc2)c1=O)C(=O)COC(=O)c1c(Cl)cccc1Cl
k obs / 1 [M⁻¹ s⁻¹]: 268000

structure-notation: O=C(O)C[C@H](NC(=O)Cn1c(-c2ccc(F)cc2)ncc(NC(=O)c2ccco2)c1=O)C(=O)COC(=O)c1c(Cl)cccc1Cl
k obs / 1 [M⁻¹ s⁻¹]: 46000

structure-notation: Cc1ncc(NC(=O)OCc2ccccc2)c(=O)n1CC(=O)N[C@@H](CC(=O)O)C(=O)COc1cc(C(F)(F)F)nn1-c1ccccc1
k obs / 1 [M⁻¹ s⁻¹]: 95000

structure-notation: Nc1cnc(-c2ccc(F)cc2)n(CC(=O)N[C@@H](CC(=O)O)C(=O)COC(=O)c2c(Cl)cccc2Cl)c1=O
k obs / 1 [M⁻¹ s⁻¹]: 36000

structure-notation: CN(C)CCCCCC(=O)Nc1cnc(-c2ccc(F)cc2)n(CC(=O)N[C@@H](CC(=O)O)C(=O)COC(=O)c2c(Cl)cccc2Cl)c1=O
k obs / 1 [M⁻¹ s⁻¹]: 90000

structure-notation: O=C(O)C[C@H](NC(=O)Cn1c(-c2ccc(F)cc2)ncc(NC(=O)NCc2ccccc2)c1=O)C(=O)COC(=O)c1c(Cl)cccc1Cl
k obs / 1 [M⁻¹ s⁻¹]: 148000

structure-notation: O=C(O)C[C@H](NC(=O)Cn1c(-c2cccnc2)ncc(NC(=O)OCc2ccccc2)c1=O)C(=O)COc1cc(C(F)(F)F)nn1-c1ccccc1
k obs / 1 [M⁻¹ s⁻¹]: 145000
